Target Desc: T1, CRBN, Q96SW2;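 further: pooled lentiviral library of zinc finger degron-EGFP fusions in mCherry-positive Jurkat cells, FACS-sorted after compound exposure, with degron abundance counted by next-generation sequencing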
T1 chain: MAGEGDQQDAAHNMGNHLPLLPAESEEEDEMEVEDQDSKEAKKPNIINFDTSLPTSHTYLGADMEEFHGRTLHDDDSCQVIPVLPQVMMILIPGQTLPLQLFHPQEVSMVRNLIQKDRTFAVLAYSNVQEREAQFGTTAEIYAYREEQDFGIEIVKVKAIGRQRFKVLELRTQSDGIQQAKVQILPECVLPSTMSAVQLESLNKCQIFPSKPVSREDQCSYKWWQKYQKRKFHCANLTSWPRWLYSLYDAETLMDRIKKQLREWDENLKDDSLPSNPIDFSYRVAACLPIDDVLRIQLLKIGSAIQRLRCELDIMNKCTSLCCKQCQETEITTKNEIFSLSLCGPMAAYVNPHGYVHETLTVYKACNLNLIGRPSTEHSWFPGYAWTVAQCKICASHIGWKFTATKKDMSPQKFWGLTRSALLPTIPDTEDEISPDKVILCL
Assay Comment: log2 fold change of degron read counts, EGFP-low vs EGFP+ sorted cells (limma voom), compound-induced degradation; higher = more compound-induced degradation of the degron-EGFP fusion; degrons are variants of IKZF1/3 zinc finger 2; compound dose not given here
Particulars: Jurkat; 18 h; compound: thalidomide
The full ranking holds about 8,300 sequences; the median of “log2 fold change of degron read counts, EGFP-low vs EGFP+ sorted cells (limma voom), compound-induced degradation” is about -1.1, and the highest 2% start at about 3.2. This is one part of a sample in which the highest values are shown more often than they occur.
Recorded log2 fold change of degron read counts values for a group of sequences are listed next.

Seq String	log2 fold change of degron read counts
LRCPICGFTCTQKGNLLRHIKL [46L_47R_49P_50I_52G_53F_54T_55C_67L_, Q9UKT9]	2.23
FVCDICGANFTQKGNLLRHIKL [46F_47V_49D_50I_52G_53A_54N_55F_67L_, Q9UKT9]	1.12
LQCPICGFTCTQKGNLLRHIKL [46L_47Q_49P_50I_52G_53F_54T_55C_67L_, Q9UKT9]	3.66
FLCEVCGAGFTQKGNLLRHIKL [46F_47L_49E_50V_52G_53A_54G_55F_67L_, Q9UKT9]	1.08
LFCPICGFTCTQKGNLLRHIKL [46L_47F_49P_50I_52G_53F_54T_55C_67L_, Q9UKT9]	2.69
FGCPICGATFTQKGNLLRHIKL [46F_47G_49P_50I_52G_53A_54T_55F_67L_, Q9UKT9]	1.08
FRCEVCGAGFTQKGNLLRHIKL [46F_47R_49E_50V_52G_53A_54G_55F_67L_, Q9UKT9]	1.57
FACNVCGAMFTQKGNLLRHIKL [46F_47A_49N_50V_52G_53A_54M_55F_67L_, Q9UKT9]	-1.44
FGCEVCGAGFTQKGNLLRHIKL [46F_47G_49E_50V_52G_53A_54G_55F_67L_, Q9UKT9]	-0.636
LFCPICGFCCTQKGNLLRHIKL [46L_47F_49P_50I_52G_53F_54C_55C_67L_, Q9UKT9]	2.26
FRCNQCGHHFTQKGNLLRHIKL [46F_47R_49N_50Q_52G_53H_54H_55F_67L_, Q9UKT9]	-2.74
LHCPICGFTCTQKGNLLRHIKL [46L_47H_49P_50I_52G_53F_54T_55C_67L_, Q9UKT9]	2.34
FECPQCGAVFTQKGNLLRHIKL [46F_47E_49P_50Q_52G_53A_54V_55F_67L_, Q9UKT9]	0.0294

Just for reference, the supplement of paper PMC12645437 is where these values come from.
